Data provenance: patent US9090671B2

EC50 reference
system: HCV RNA replicon ET (luc ubi neo/ET); experiment: HCV RNA replicon luciferase assay in human hepatoma cell line ET; format: cell-based; conditions: Hepatitis C virus, 72 hours, read-out: EC50, effective concentration that reduced viral replication by 50% (HCV RNA replicon derived LUC activity)

MOLECULE	STUDY SYSTEM	EC50
CC=CCC(C)C(O)C1C(=O)NC(CC)C(=O)N(C)C(OC)C(=O)N(C)C(CC(C)C)C(=O)N(CC=CCN(C)C)C(C(C)C)C(=O)N(C)C(CC(C)C)C(=O)NC(C)C(=O)NC(C)C(=O)N(C)C(CC(C)C)C(=O)N(C)C(CC(C)C)C(=O)N(C)C(C(C)C)C(=O)N1C (stereo not shown)	HCV RNA replicon ET (luc ubi neo/ET)	< 1 µM
CC=CCC(C)C(O)C1C(=O)NC(CC)C(=O)N(C)C(SCCC)C(=O)N(C)C(CC(C)C)C(=O)N(Cc2ccccc2)C(C(C)C)C(=O)N(C)C(CC(C)C)C(=O)NC(C)C(=O)NC(C)C(=O)N(C)C(CC(C)C)C(=O)N(C)C(CC(C)C)C(=O)N(C)C(C(C)C)C(=O)N1C (stereo not shown)	HCV RNA replicon ET (luc ubi neo/ET)	> 1 µM
CC=CCC(C)C(O)C1C(=O)NC(CC)C(=O)N(C)C(OC)C(=O)N(C)C(CC(C)C)C(=O)N(CC=CC)C(C(C)C)C(=O)N(C)C(CC(C)C)C(=O)NC(C)C(=O)NC(C)C(=O)N(C)C(CC(C)C)C(=O)N(C)C(CC(C)C)C(=O)N(C)C(C(C)C)C(=O)N1C (stereo not shown)	HCV RNA replicon ET (luc ubi neo/ET)	< 1 µM
CC=CCC(C)C(O)C1C(=O)NC(CC)C(=O)N(C)C(OC)C(=O)N(C)C(CC(C)C)C(=O)N(CC=CCOCc2ccccc2)C(C(C)C)C(=O)N(C)C(CC(C)C)C(=O)NC(C)C(=O)NC(C)C(=O)N(C)C(CC(C)C)C(=O)N(C)C(CC(C)C)C(=O)N(C)C(C(C)C)C(=O)N1C (stereo not shown)	HCV RNA replicon ET (luc ubi neo/ET)	< 1 µM
CC=CCC(C)C(O)C1C(=O)NC(CC)C(=O)N(C)C(SC)C(=O)N(C)C(CC(C)C)C(=O)N(CC=CCN(C)C)C(C(C)C)C(=O)N(C)C(CC(C)C)C(=O)NC(C)C(=O)NC(C)C(=O)N(C)C(CC(C)C)C(=O)N(C)C(CC(C)C)C(=O)N(C)C(C(C)C)C(=O)N1C (stereo not shown)	HCV RNA replicon ET (luc ubi neo/ET)	< 1 µM
C/C=C/C[C@@H](C)[C@@H](O)[C@H]1C(=O)N[C@@H](CC)C(=O)N(C)C(SC)C(=O)N(C)[C@@H](CC(C)C)C(=O)N(Cc2ccccc2)[C@@H](C(C)C)C(=O)N(C)[C@@H](CC(C)C)C(=O)N[C@@H](C)C(=O)N[C@H](C)C(=O)N(C)[C@@H](CC(C)C)C(=O)N(C)[C@@H](CC(C)C)C(=O)N(C)[C@@H](C(C)C)C(=O)N1C (stereo partly shown)	HCV RNA replicon ET (luc ubi neo/ET)	< 1 µM
CC=CCC(C)C(O)C1C(=O)NC(CC)C(=O)N(C)C(SC)C(=O)N(C)C(CC(C)C)C(=O)N(CC=CCO)C(C(C)C)C(=O)N(C)C(CC(C)C)C(=O)NC(C)C(=O)NC(C)C(=O)N(C)C(CC(C)C)C(=O)N(C)C(CC(C)C)C(=O)N(C)C(C(C)C)C(=O)N1C (stereo not shown)	HCV RNA replicon ET (luc ubi neo/ET)	< 1 µM
CC=CCC(C)C(O)C1C(=O)NC(CC)C(=O)N(C)C(OC)C(=O)N(C)C(CC(C)C)C(=O)N(Cc2cccc(C(F)(F)F)c2)C(C(C)C)C(=O)N(C)C(CC(C)C)C(=O)NC(C)C(=O)NC(C)C(=O)N(C)C(CC(C)C)C(=O)N(C)C(CC(C)C)C(=O)N(C)C(C(C)C)C(=O)N1C (stereo not shown)	HCV RNA replicon ET (luc ubi neo/ET)	< 1 µM
CC=CCC(C)C(O)C1C(=O)NC(CC)C(=O)N(C)C(SCCN(C)C)C(=O)N(C)C(CC(C)C)C(=O)N(Cc2ccccc2)C(C(C)C)C(=O)N(C)C(CC(C)C)C(=O)NC(C)C(=O)NC(C)C(=O)N(C)C(CC(C)C)C(=O)N(C)C(CC(C)C)C(=O)N(C)C(C(C)C)C(=O)N1C (stereo not shown)	HCV RNA replicon ET (luc ubi neo/ET)	< 1 µM
CC=CCC(C)C(O)C1C(=O)NC(CC)C(=O)N(C)C(OC)C(=O)N(C)C(CC(C)C)C(=O)N(Cc2ccccc2)C(C(C)C)C(=O)N(C)C(CC(C)C)C(=O)NC(C)C(=O)NC(C)C(=O)N(C)C(CC(C)C)C(=O)N(C)C(CC(C)C)C(=O)N(C)C(C(C)C)C(=O)N1C (stereo not shown)	HCV RNA replicon ET (luc ubi neo/ET)	< 1 µM
CC=CCC(C)C(O)C1C(=O)NC(CC)C(=O)N(C)C(OC)C(=O)N(C)C(CC(C)C)C(=O)N(CC=C(C)C)C(C(C)C)C(=O)N(C)C(CC(C)C)C(=O)NC(C)C(=O)NC(C)C(=O)N(C)C(CC(C)C)C(=O)N(C)C(CC(C)C)C(=O)N(C)C(C(C)C)C(=O)N1C (stereo not shown)	HCV RNA replicon ET (luc ubi neo/ET)	< 1 µM
C=CCN1C(=O)C(CC(C)C)N(C)C(=O)C(OC)N(C)C(=O)C(CC)NC(=O)C(C(O)C(C)CC=CC)N(C)C(=O)C(C(C)C)N(C)C(=O)C(CC(C)C)N(C)C(=O)C(CC(C)C)N(C)C(=O)C(C)NC(=O)C(C)NC(=O)C(CC(C)C)N(C)C(=O)C1C(C)C (stereo not shown)	HCV RNA replicon ET (luc ubi neo/ET)	< 1 µM
CC=CCC(C)C(O)C1C(=O)NC(CC)C(=O)N(C)C(OC)C(=O)N(C)C(CC(C)C)C(=O)N(CC=CCO)C(C(C)C)C(=O)N(C)C(CC(C)C)C(=O)NC(C)C(=O)NC(C)C(=O)N(C)C(CC(C)C)C(=O)N(C)C(CC(C)C)C(=O)N(C)C(C(C)C)C(=O)N1C (stereo not shown)	HCV RNA replicon ET (luc ubi neo/ET)	< 1 µM
